For each of the compounds below, state its Curve Class.
- assayed system: CIB1 and αIIb interaction (CIB1-GST : F-αIIb peptide) (Homo sapiens)
- Construct: made in house; host or cells: BL-21 plus RIL cells (E. coli)
- Sequence (Q99828 1-191): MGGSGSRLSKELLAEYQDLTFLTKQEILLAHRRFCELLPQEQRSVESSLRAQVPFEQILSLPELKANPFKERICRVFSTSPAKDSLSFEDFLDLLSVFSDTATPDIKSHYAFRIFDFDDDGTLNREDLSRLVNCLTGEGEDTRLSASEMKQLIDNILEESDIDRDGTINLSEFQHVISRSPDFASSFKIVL
- assay procedure: FP assay, 1536-well qHTS format (primary and confirmatory screen)
- Format: binding
- conditions: qHTS primary screen of LOPAC/NPACT libraries; negative sign = inhibitory curve

Reported Curve Class for O=C(O)CCc1ccc(NCc2cccc3c2CCCN3CCOc2ccccc2)cc1F [NCGC00370998-03] : what is it?
-2.4

So what's the measured Curve Class for this one? CN1CCN(c2ccc(C(=O)Nc3n[nH]c4ccc(Cc5cc(F)cc(F)c5)cc34)c(NC3CCOCC3)c2)CC1 [NCGC00484067-01]
-2.4

Entry under review: O=C([C@@H]1CCCN(c2ccc3[nH]c(C4(n5cc(Cl)cn5)CC4)nc3n2)C1)N1CCCC1 [NCGC00485074-01] . Reported Curve Class?
-2.4

Bench note: what Curve Class did Cc1c(O)cc2c(c1O)COC1(O)CCCOC21 (centres unmarked) [NCGC00380856-01] show?
-2.4

Requested read-out: Curve Class. Entry: COc1cc(N2CCC(N3CCN(C)CC3)CC2)ccc1Nc1ncc(Cl)c(Nc2ccccc2S(=O)(=O)C(C)C)n1 [NCGC00238453-07]
-2.4

Please report the recorded Curve Class for C=C1C2(C)CC3C(C)(O)C4=CC(=O)OC(C)(C)C4=CCC3(C)C13C(=O)OC(C)C3(O)C2=O (centres unmarked) [NCGC00380442-01] .
-2.4

Param item = Ic1ccccc1CNC1C2CCN(CC2)C1C(c1ccccc1)c1ccccc1.O=C(O)C(=O)O (centres unmarked) [NCGC00015587-03] ; retrieve measured Curve Class.
-3

Fill in: Curve Class of COC(=O)C1=C(C)NC(C)=C(C(=O)OC)C1c1ccccc1[N+](=O)[O-] [NCGC00015748-13] is ___
-1.2

Look up Curve Class for this compound: COC(=O)C1=C(C)NC(C)=C(C(=O)OCCN(C)Cc2ccccc2)C1c1cccc([N+](=O)[O-])c1.Cl (centres unmarked) [NCGC00261494-01]
-1.2

Quick one: Curve Class of CC(C)c1ccc2c(c1)c(SC(C)(C)C)c(CC(C)(C)C(=O)O)n2Cc1ccc(Cl)cc1 [NCGC00162249-03] ?
-1.4

Bench note: what Curve Class did COc1cccc(CNC(=O)C2=NC3SC=C(COCc4ccc(C(=O)O)cc4)C3C(=O)N2)c1 (centres unmarked) [NCGC00488702-01] show?
-1.4

Entry CC(=O)N[C@@H](Cc1c[nH]c2ccccc12)C(=O)OCc1cc(C(F)(F)F)cc(C(F)(F)F)c1 [NCGC00024832-04] : reported Curve Class = ?
-1.2

Need Curve Class, item C=C(C)C(=O)OC1CC2(C)OC(=CC2=O)C(=C)CC2OC(=O)C(=C)C12 (centres unmarked) [NCGC00381113-01]
-1.4

Would you kindly share the measured Curve Class for CCCCCN(CCCCC)C(=O)C(CCC(=O)O)NC(=O)c1ccc(Cl)c(Cl)c1 (centres unmarked) [NCGC00162232-03] ?
-2.2

Fill blank: measured Curve Class of the compound C=CCn1c(=O)c2c(nc(-c3ccc(S(=O)(=O)O)cc3)n2C)n(C)c1=O [NCGC00015008-05] is ____.
-2.2

Record request: Curve Class value, item NC(=O)c1cc[n+](CC2=C(C(=O)O)N3C(=O)[C@@H](NC(=O)[C@@H](c4ccccc4)S(=O)(=O)[O-])[C@H]3SC2)cc1 [NCGC00162106-03]
-2.2

Bench note: what Curve Class did N#C/C(=C1\Nc2ccccc2S1)c1ccnc(NCCc2cccnc2)n1 [NCGC00387772-02] show?
-1.4

What does the record list as Curve Class for O=C(O)/C(=C/c1c(C(=O)O)[nH]c2cc(Cl)cc(Cl)c12)c1ccccc1 [NCGC00015639-04] ?
-2.2

Which Curve Class reading was recorded for the compound O=c1onc2cnc3ccccc3n12 [NCGC00015770-05] ?
-2.4

Give its Curve Class value. Item: COc1cc(/C=C/c2ccccc2)c(C(=O)O)c(O)c1CC=C(C)C [NCGC00385333-01]
-2.4

====

- assayed system: CIB1 and αIIb interaction (CIB1-GST : F-αIIb peptide) (Homo sapiens)
- Construct: made in house; host or cells: BL-21 plus RIL cells (E. coli)
- Sequence (Q99828 1-191): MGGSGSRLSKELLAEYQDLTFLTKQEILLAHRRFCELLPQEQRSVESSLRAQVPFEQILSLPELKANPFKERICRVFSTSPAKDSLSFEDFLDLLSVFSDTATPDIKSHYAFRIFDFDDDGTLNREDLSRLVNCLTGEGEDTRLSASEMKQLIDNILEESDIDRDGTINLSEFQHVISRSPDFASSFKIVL
- assay procedure: FP assay, 1536-well qHTS format (primary and confirmatory screen)
- Type: binding
- conditions: qHTS primary screen hits, Table S2; negative = inhibition
readout: Efficacy (%)
Your answer is read as %, so omit the unit and give the number.

Which Efficacy (%) value belongs to Cc1ccc(C)n1-c1cnccc1C(=O)O.O=C(O)C(F)(F)F ?
-39

// query Efficacy (%) value for entry Cc1ccnc(NC(=S)N2CCN(c3cccc(C(F)(F)F)c3)CC2)n1.O=C(O)C(F)(F)F
-41

// query Efficacy (%) value for entry Cc1cc(SCc2sc(-c3ccc(Cl)c(Cl)c3)nc2C)ccc1OCC(=O)O.O=C(O)C(F)(F)F
-41

I'd like to know its Efficacy (%). The molecule in question is CCC(=O)NC(c1cccs1)c1cc(Cl)c2cccnc2c1O (stereo not shown)
-29

Look up Efficacy (%) for this molecule: O=C(O)c1ccccn1
-21

Bench note: what Efficacy (%) did CCCCCCCCCCCC[N+](C)(C)CCOc1ccccc1.[Br-] show?
-55

For the molecule Cc1cnc(-c2ccccc2C(C)C)nc1NCc1ccc(-c2ccc(F)nc2)cc1.O=C(O)C(F)(F)F , what Efficacy (%) is on record?
-52

====

- assayed system: CIB1 and αIIb interaction (CIB1-GST : F-αIIb peptide) (Homo sapiens)
- Construct: made in house; host or cells: BL-21 plus RIL cells (E. coli)
- Sequence (Q99828 1-191): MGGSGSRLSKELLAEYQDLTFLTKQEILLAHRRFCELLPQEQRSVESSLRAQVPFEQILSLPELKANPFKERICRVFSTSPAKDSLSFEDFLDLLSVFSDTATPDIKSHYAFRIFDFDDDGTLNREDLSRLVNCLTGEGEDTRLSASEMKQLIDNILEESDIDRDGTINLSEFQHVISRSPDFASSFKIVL
- assay procedure: FP assay, 1536-well qHTS format (primary and confirmatory screen)
- Type: binding
- conditions: qHTS primary screen hits, Table S2; read-out: IC50
readout: IC50

Please report the recorded IC50 for Cn1ccc(=Nc2ccc(NC(=O)c3ccc(/N=c4\ccn(C)c5ccc([N+](=O)[O-])cc45)cc3[N+](=O)[O-])cc2)cc1.O=C(O)C(F)(F)F .
39.8 µM

Returns the measured IC50 for the input molecule. Input: O=C(Cc1ccc(Cl)c(Cl)c1)Nc1ccc(S(=O)(=O)Nc2nncs2)cc1.O=C(O)C(F)(F)F
11.2 µM

Value lookup for IC50; key = O=C(O)C(F)(F)F.O=C(c1ccc2ccccc2c1)c1no[n+]([O-])c1C(=O)c1ccc2ccccc2c1
44.7 µM

What value of IC50 has been recorded for this entry: O=c1[nH]c2cc([N+](=O)[O-])c([N+](=O)[O-])cc2[nH]c1=O
31.6 µM

Any idea what IC50 was measured for CC1=C[C@@H]2[C@H]([C@@H](O)C[C@@]3(C)[C@H]2C[C@@H](C)[C@]3(O)C(=O)CO)[C@@]2(C)Cc3cnn(-c4ccccc4)c3C=C12 ?
37.6 µM

Quick one: IC50 for CCOC(=O)c1c(NC(=O)CN2CCCCC2)sc2c1CCN(C(=O)OCC)C2.O=C(O)C(F)(F)F ?
89.1 µM

// lookup IC50 for Oc1ccc(-c2nnn[nH]2)c2cccnc12
14.1 µM

I'd like to know its IC50. The molecule in question is C=CCNc1oc(-c2ccc(F)cc2)nc1C#N.O=C(O)C(F)(F)F
50.1 µM

# lookup: IC50 of O=C(Nc1ccc(S(=O)(=O)N2CCOCC2)cc1)c1ccc(N2CCc3ccccc3C2)cc1
50.1 µM

# get_value(readout='IC50', item= CN(C)CCc1c[nH]c2ccc(O)cc12 )
112 µM

// lookup IC50 for CN1CCN(c2ncc3nc(-c4cn(C)c5ccccc45)c(=O)n(Cc4cccs4)c3n2)CC1.O=C(O)C(F)(F)F
50.1 µM

// query IC50 value for entry Cc1ccc(-c2cc(-c3nn(-c4nc(C(=O)O)cs4)c(CC4CC4)c3Cc3ccc(S(N)(=O)=O)c(F)c3)ccc2F)s1.Cl
28.2 µM

Could you tell me which IC50 is on file for O=C(Nc1nc(-c2ccccc2)cs1)c1ccncc1NS(=O)(=O)c1ccc2ccccc2c1.O=C(O)C(F)(F)F ?
39.8 µM

What value of measured IC50 is listed for CC(=O)Oc1cccc2c1C(=O)c1c(OC(C)=O)cc(C(=O)O)cc1C2=O ?
39.8 µM

What does the record list as IC50 for Cc1ccccc1S(=O)(=O)Nc1cnccc1C(=O)Nc1nc(-c2ccccc2)cs1.O=C(O)C(F)(F)F ?
44.7 µM

Data request, read-out IC50, for CCN1C(=O)c2ccccc2[S+]([O-])c2ccc(C(=O)Nc3ncc(C)s3)cc21 (stereo not drawn)
39.8 µM

Would you kindly share the measured IC50 for COc1ccccc1N1CCNCC1.Cl ?
79.4 µM

Recorded IC50 of Cc1cc(SCc2sc(-c3ccc(Cl)cc3)nc2C)ccc1OCC(=O)O.O=C(O)C(F)(F)F , please.
56.2 µM

Can you share its IC50? I mean this molecule: O=C(O)C(F)(F)F.O=C1c2ccccc2NC(c2ccc(-c3ccc(C(F)(F)F)cc3)o2)N1O (stereo not drawn)
56.2 µM

Given the molecule CNC[C@H](O)c1cccc(O)c1 , what is its reported IC50?
5.6 µM

Which value of IC50 has been reported for CCOc1cc(C(C)(C)C)ccc1C1=N[C@@](C)(c2ccc(Cl)cc2)[C@@](C)(c2ccc(Cl)cc2)N1C(=O)N1CCN(CC(=O)N2CCOCC2)CC1 in the records?
49.1 µM
